remaining at 72 h reference
assay: physchem; assay type: physicochemical; conditions: cells or culture medium, Individual peptide, 10 μg/mL, 3rd day, UPLC-MS/MS, mean ± SD, n = 3, read-out: Peptide Remaining Concentration (%), Negative Control, 3rd Day
Numbered stars: 1 amine (or outer) side, 2 acyl side, 3 side chain; on linkers, the order of the positions; unused ones are H or OH. Bridge positions count the residues as written; N and C are the ends. Square brackets hold non-standard residues; d marks the D form. Peptide text beside a SMILES is read from it. hTyr = N[C@@H](CCc1ccc(O)cc1)C(=O)O; NMeA = CN[C@@H](C)C(=O)O; CO = O=C([*:1])[*:2]
Respond numerically; units are % and should not be typed.

[in] remaining at 72 h for CC(C)[C@@H]1NC(=O)[C@H](NC(=O)N[C@@H](Cc2ccc(O)cc2)C(=O)O)CCCCNC(=O)[C@H](Cc2ccccc2)NC(=O)[C@H](C)N(C)C(=O)[C@H](CCc2ccc(O)cc2)NC1=O [ANBP-A, anabaenopeptin A] ({Tyr-CO}-[dK]V[hTyr][NMeA]F; lactam 1-C) ?
[out] 112

[in] Please report the recorded remaining at 72 h for CC(C)[C@@H]1NC(=O)[C@H](NC(=O)N[C@@H](CCCNC(=N)N)C(=O)O)CCCCNC(=O)[C@H](Cc2ccccc2)NC(=O)[C@H](C)N(C)C(=O)[C@H](CCc2ccc(O)cc2)NC1=O [ANBP-B, anabaenopeptin B] ({Arg-CO}-[dK]V[hTyr][NMeA]F; lactam 1-C) .
[out] 100

[in] Item CSCC[C@@H]1NC(=O)[C@@H]2CSC(=N2)[C@@H](Cc2ccccc2)NC(=O)c2csc(n2)CNC(=O)[C@H]2N=C1O[C@@H]2C [AC-D, aerucyclamide D] has what recorded remaining at 72 h?
[out] 113

---

experiment: physchem; format: physicochemical; conditions: cells or culture medium, In MIX: MC-LR 10 μg/mL, other cyanopeptides 1 µg/mL, 3rd day, mean ± SD, n = 3, read-out: Peptide Remaining Concentration (%), Negative Control, 3rd Day
metric: remaining at 72 h (%)
Entry rule: numbers only, all in %.

[in] Need remaining at 72 h of CC[C@H](C)[C@@H]1NC(=O)[C@@H]2CSC(=N2)[C@@H]([C@@H](C)CC)NC(=O)c2csc(n2)CNC(=O)[C@H]2N=C1O[C@@H]2C [AC-A, aerucyclamide A] , thanks.
[out] 109
